All figures here come from the supplement of paper PMC11246515.

Property: total protein half-life in vivo; scope: individual sequences
assay: total protein half-life in vivo (active degradation + dilution); higher = more stable protein; conditions: wild type E. coli NCM3722; growth: N-lim chemostat; doubling time 6 h
Form entry: value (h) — number only.

Ask | May I ask what total protein half-life in vivo has been recorded for MTVETQLNPTQPVNQQIYRILRRDIVHCLIAPGTPLSEKEVSVRFNVSRQPVREAFIKLAENGLIQIRPQRGSYVNKISMAQVRNGSFIRQAIECAVARRAASMITESQCYQLEQNLHQQRIAIERKQLDDFFELDDNFHQLLTQIADCQLAWDTIENLKATVDRVRYMSFDHVSPPEMLLRQHLDIFSALQKRDGDAVERAMTQHLQEISESVRQIRQENSDWFSEE [P0ACM2] ?
Reply | 5.71

Ask | Returns the measured total protein half-life in vivo for the input sequence. Input: MSNKMTGLVKWFNADKGFGFISPVDGSKDVFVHFSAIQNDNYRTLFEGQKVTFSIESGAKGPAAANVIITD
Reply | 0.537

Ask | Field request: total protein half-life in vivo | item: MKCKRLNEVIELLQPAWQKEPDLNLLQFLQKLAKESGFDGELADLTDDILIYHLKMRDSAKDAVIPGLQKDYEEDFKTALLRARGVIKE [P0ADP9]
Reply | 2.74

Ask | Sample MKRKVLLIPLIIFLAIAAALLWQLARNAEGDDPTNLESALIGKPVPKFRLESLDNPGQFYQADVLTQGKPVLLNVWATWCPTCRAEHQYLNQLSAQGIRVVGMNYKDDRQKAISWLKELGNPYALSLFDGDGMLGLDLGVYGAPETFLIDGNGIIRYRHAGDLNPRVWEEEIKPLWEKYSKEAAQ [P0AA86] — what was its total protein half-life in vivo?
Reply | 6.16

Ask | What value of total protein half-life in vivo has been reported for the following sequence? MIIIRYLVRETLKSQLAILFILLLIFFCQKLVRILGAAVDGDIPANLVLSLLGLGVPEMAQLILPLSLFLGLLMTLGKLYTESEITVMHACGLSKAVLVKAAMILAVFTAIVAAVNVMWAGPWSSRHQDEVLAEAKANPGMAALAQGQFQQATNGSSVLFIESVDGSDFKDVFLAQIRPKGNARPSVVVADSGHLTQLRDGSQVVTLNQGTRFEGTALLRDFRITDFQDYQAIIGHQAVALDPNDTDQMDMRTLWNTDTDRARAELNWRITLVFTVFMMALMVVPLSVVNPRQGRVLSMLPAMLLYLLFFLIQTSLKSNGGKGKLDPTLWMWTVNLIYLALAIVLNLWDTVPVRRLRASFSRKGAV [P0AF98]
Reply | 5.96

Ask | Need total protein half-life in vivo of MKIGIIGAMEEEVTLLRDKIENRQTISLGGCEIYTGQLNGTEVALLKSGIGKVAAALGATLLLEHCKPDVIINTGSAGGLAPTLKVGDIVVSDEARYHDADVTAFGYEYGQLPGCPAGFKADDKLIAAAEACIAELNLNAVRGLIVSGDAFINGSVGLAKIRHNFPQAIAVEMEATAIAHVCHNFNVPFVVVRAISDVADQQSHLSFDEFLAVAAKQSSLMVESLVQKLAHG [P0AF12] , thanks.
Reply | 4.85

Ask | Name the reported total protein half-life in vivo value associated with the sequence MIALIQRVTRASVTVEGEVTGEIGAGLLVLLGVEKDDDEQKANRLCERVLGYRIFSDAEGKMNLNVQQAGGSVLVVSQFTLAADTERGMRPSFSKGASPDRAEALYDYFVERCRQQEMNTQTGRFAADMQVSLVNDGPVTFWLQV [P0A6M4]
Reply | 3.84
